Source listed as ChEMBL document CHEMBL4765483.

# measurement-target: CYP3A4 (Homo sapiens)
# Sequence (P08684 whole entry): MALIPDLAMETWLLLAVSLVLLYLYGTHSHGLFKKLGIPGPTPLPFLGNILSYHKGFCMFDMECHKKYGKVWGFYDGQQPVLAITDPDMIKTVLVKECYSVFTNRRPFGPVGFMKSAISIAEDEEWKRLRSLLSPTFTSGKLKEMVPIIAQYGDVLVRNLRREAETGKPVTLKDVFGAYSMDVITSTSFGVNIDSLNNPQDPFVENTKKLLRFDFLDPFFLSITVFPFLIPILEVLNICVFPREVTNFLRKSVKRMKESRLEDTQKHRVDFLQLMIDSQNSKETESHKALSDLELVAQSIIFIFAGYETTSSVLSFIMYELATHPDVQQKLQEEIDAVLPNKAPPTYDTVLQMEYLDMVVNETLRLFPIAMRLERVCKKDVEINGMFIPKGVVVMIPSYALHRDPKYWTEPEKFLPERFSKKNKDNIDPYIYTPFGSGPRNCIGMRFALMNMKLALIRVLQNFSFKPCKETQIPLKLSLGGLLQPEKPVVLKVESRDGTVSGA
# experiment: Inhibition of CYP3A4 (unknown origin) expressed in insect cell microsomes at 10 uM in presence of BFC substrate by fluorescence based assay relative to control
# Assay type: ADME, Microsome
# measurement-context: recombinant CYP3A4 expressed in insect cell microsomes, probe BFC
reported-metric: inhibition at 10 µM (%)

[1] CC1=C(C(=O)OC(C)C)C(c2ccco2)NC(=S)N1 (racemic)
[2] CCOC(=O)C1=C(C)NC(=O)NC1c1ccsc1 (racemic)
stdin: Could you point out whether the larger inhibition at 10 µM belongs to 1 or to 2 ? Pick one; state its label.
stdout: 2
(2: 44%, 1: 13%)

---

# measurement-target: CYP3A4 (Homo sapiens)
# experiment: Inhibition of CYP3A4 (unknown origin) expressed in insect cell microsomes at 10 uM in presence of DBF substrate by fluorescence based assay relative to control
# Type: ADME, Microsome
# measurement-context: recombinant CYP3A4 expressed in insect cell microsomes, probe DBF
reported-metric: inhibition at 10 µM (%)

[a] CC1=C(C(=O)OC(C)C)C(c2ccco2)NC(=S)N1 (racemic)
[b] CCOC(=O)C1=C(C)NC(=O)NC1c1ccsc1 (racemic)
stdin: Lab note: record which item had the higher inhibition at 10 µM, a or b . Answer with the label corresponding to your selection.
stdout: b

---

# measurement-target: Adenosine receptor A3 (Homo sapiens) (UniProt P0DMS8)
# experiment: Displacement of [3H]NECA from adenosine A3 receptor expressed in human HeLa cell membranes at 1 uM incubated for 180 mins by scintillation counting method
# measurement-context: Cell membrane
reported-metric: inhibition (%)

Worked cases, inhibition given:
[[record]]
compound = "CCSC(=O)C1=C(C)NC(=O)NC1c1ccco1 (racemic)"
reported_metric = "inhibition"
value_unit = "%"
value_observed = 14

[[record]]
compound = "CC1=C(C(=O)CC(C)C)C(c2ccoc2)NC(=O)N1 (racemic)"
reported_metric = "inhibition"
value_unit = "%"
value_observed = 18

[[record]]
compound = "CC1=C(C(=O)OCC(C)C)C(c2ccoc2)NC(=S)N1 (racemic)"
reported_metric = "inhibition"
value_unit = "%"
value_observed = 1

[[record]]
compound = "COC(=O)C1=C(C)N(C)C(=O)NC1c1ccoc1 (racemic)"
reported_metric = "inhibition"
value_unit = "%"
value_observed = 7


[I] CC1=C(C(=O)OC(C)(C)C)C(c2ccoc2)NC(=O)N1 (racemic)
[II] CCN(CC)C(=O)C1=C(C)NC(=O)NC1c1ccoc1 (racemic)
stdin: // returns I or II , whichever has the lower inhibition Write the label of whichever entry you select.
stdout: I
(I: 2%, II: 37%)

[a] CC1=C(C(=O)OCC(C)C)C(c2ccoc2)NC(=O)N1 (racemic)
[b] CC1=C(C(=O)OC2CCC2)C(c2ccco2)NC(=O)N1 (racemic)
[c] CCCOC(=O)C1=C(C)N(C)C(=O)NC1c1cccs1 (racemic)
stdin: Write the entries in order, lowest recorded inhibition first. Response field: labels, in requested order.
stdout: b, c, a
(b: 1%, c: 4%, a: 16%)

---

# measurement-target: Adenosine receptor A3 (Homo sapiens) (UniProt P0DMS8)
# Sequence (whole entry): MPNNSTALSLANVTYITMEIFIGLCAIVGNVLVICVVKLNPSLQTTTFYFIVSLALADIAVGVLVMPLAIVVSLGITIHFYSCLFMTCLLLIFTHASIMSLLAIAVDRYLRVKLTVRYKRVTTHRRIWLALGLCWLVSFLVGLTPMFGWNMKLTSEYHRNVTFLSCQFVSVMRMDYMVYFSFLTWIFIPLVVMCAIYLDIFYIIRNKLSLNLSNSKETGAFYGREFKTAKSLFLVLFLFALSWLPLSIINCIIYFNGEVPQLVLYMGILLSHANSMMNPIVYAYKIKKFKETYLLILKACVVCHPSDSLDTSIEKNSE
# experiment: Displacement of [3H]NECA from adenosine A3 receptor expressed in human HeLa cell membranes at 1 uM incubated for 180 mins by scintillation counting method
# measurement-context: Cell membrane
reported-metric: inhibition (%)

Sample records with inhibition:
[[record]]
compound = "CC1=C(C(=O)SC(C)C)C(c2ccoc2)NC(=O)N1 (racemic)"
value_unit = "%"
value_observed = 3

[[record]]
compound = "CCOP(=O)(OCC)C1=C(C)NC(=O)NC1c1ccsc1 (racemic)"
value_unit = "%"
value_observed = 1

[[record]]
compound = "CC1=C(C(=O)OCC2CCC2)C(c2cccs2)NC(=O)N1 (racemic)"
value_unit = "%"
value_observed = 1


[a] CCC(CC)OC(=O)C1=C(C)NC(=O)NC1c1ccco1 (racemic)
[b] COC(=O)C1=C(C)N(C)C(=O)NC1c1cccs1 (racemic)
stdin: Between the entries labeled a and b , whose measured inhibition is lower? Please respond with the label that marks your chosen entry.
stdout: a
(a: 1%, b: 15%)
